target or test system: histone deacetylase (HDAC)
assay method text: Inhibition of Histone Deacetylase Enzymatic Activity
measurement setup: substrate Boc-Lys(Ac)-AMC, Fluor-de-Lys developer, 37° C., 20 min; against one or more of HDAC-1 to HDAC-11, SirT1 to SirT7 (isoform not given); read-out: HDAC Inhibitory Activity (IC50)
pIC50: −log10 of the molar value.
endpoint name: pIC50

Some entries whose results are on file:
[[record]]
compound = "O=C(NO)c1ccc(CN2c3ccccc3NC(=O)[C@@H]2Cc2cccs2)cc1"
endpoint_name = "pIC50"
assay_result = "6.30 to 7.30"

[[record]]
compound = "CC(C)[C@H]1Nc2ccc(NC(=O)CCCCCCC(=O)NO)cc2NC1=O [Compound 24e]"
endpoint_name = "pIC50"
assay_result = "> 7.30"

[[record]]
compound = "O=C(NO)c1ccc(CN2c3ccccc3NC(=O)[C@H]2CCc2ccccc2)cc1"
endpoint_name = "pIC50"
assay_result = "> 7.30"

[[record]]
compound = "O=C(CCCCCCC(=O)Nc1ccc2c(c1)NC(=O)[C@@H](Cc1c[nH]c3ccccc13)N2)NO [Compound 24f]"
endpoint_name = "pIC50"
assay_result = "> 7.30"


Query: Fill in the blank: the reported pIC50 of O=C(NO)c1cccc(NC(=O)N2c3ccccc3NC(=O)[C@H]2Cc2ccc(F)c(F)c2)c1 is ____.
Result: 6.30 to 7.30

Query: Fill in the blank: the reported pIC50 of O=C(CCCCCN1C(=O)[C@@H](Cc2ccncc2)NC(=O)c2ccccc21)NO is ____.
Result: 5.70 to 6.30

Query: Fill in the blank: the reported pIC50 of O=C(NO)c1cnc(N[C@H]2C[C@@H](C(=O)Nc3cccc4cccnc34)N(C(=O)OCc3ccccc3)C2)nc1 is ____.
Result: > 7.30

Query: Fill in the blank: the reported pIC50 of CC(C)(C)OC(=O)CC[C@@H]1C(=O)Nc2ccccc2N1Cc1ccc(C(=O)NO)cc1 is ____.
Result: > 7.30

Query: Fill in the blank: the reported pIC50 of O=C(NO)c1ccc(CN2c3ccccc3NC(=O)[C@H]2Cc2cccc(C(F)(F)F)c2)cc1 is ____.
Result: 6.30 to 7.30

Query: Fill in the blank: the reported pIC50 of O=C(/C=C/c1ccc2c(c1)NC(=O)[C@@H](Cc1c[nH]c3ccccc13)N2)NO [Compound 66f] is ____.
Result: 6.30 to 7.30

Query: Fill in the blank: the reported pIC50 of COc1ccc(CN2c3ccc(C(=O)NO)cc3NC(=O)[C@@H]2C(C)C)cc1 is ____.
Result: 5.70 to 6.30

Query: Fill in the blank: the reported pIC50 of O=C(CO[C@@H]1CC(C(=O)Nc2cccc3cccnc23)N(C(=O)OCc2ccccc2)C1)NO (stereo partly shown) [Compound 112b] is ____.
Result: 5.70 to 6.30

Query: Fill in the blank: the reported pIC50 of COc1ccc(CN2c3ccccc3NC(=O)C2CCCCCC(=O)NO)cc1 (stereo not shown) [Compound 47a] is ____.
Result: 6.30 to 7.30

Query: Fill in the blank: the reported pIC50 of O=C(NO)c1ccc(CN2c3ccccc3NC(=O)[C@H]2Cc2csc3ccccc23)cc1 is ____.
Result: > 7.30

Query: Fill in the blank: the reported pIC50 of O=C(NO)c1ccc2c(c1)NC(=O)[C@H](Cc1ccccc1)N2 is ____.
Result: 5.00 to 5.70

Query: Fill in the blank: the reported pIC50 of O=C(NO)c1ccc(CN2C(=O)CNC(=O)[C@H]2Cc2cccs2)cc1 [Compound 136c] is ____.
Result: 6.30 to 7.30

----------
target or test system: histone deacetylase (HDAC)
assay method text: Inhibition of Histone Deacetylase Enzymatic Activity
measurement setup: substrate Boc-Lys(Ac)-AMC, Fluor-de-Lys developer, 37° C., 20 min; against one or more of HDAC-1 to HDAC-11, SirT1 to SirT7 (isoform not given); read-out: HDAC Inhibitory Activity (IC50)
endpoint name: IC50

Some entries whose results are on file:
[[record]]
compound = "O=C(NO)c1ccc(CN2c3ccccc3NC(=O)[C@H]2Cc2cccs2)cc1 [Compound 56a]"
endpoint_name = "IC50"
assay_result = "500 to 2000 nM"

[[record]]
compound = "O=C(CCCCCN1C(=O)[C@H](C2CCCCC2)NC(=O)c2ccccc21)NO"
endpoint_name = "IC50"
assay_result = "500 to 2000 nM"

[[record]]
compound = "O=C(NO)c1ccc(O[C@H]2C[C@H](C(=O)Nc3cccc4cccnc34)N(C(=O)OCc3ccccc3)C2)cc1 [Compound 109c]"
endpoint_name = "IC50"
assay_result = "50 to 500 nM"

[[record]]
compound = "O=C(CCCCCC1NC(=O)c2ccccc2N(Cc2ccccc2)C1=O)NO (stereo not drawn)"
endpoint_name = "IC50"
assay_result = "50 to 500 nM"

[[record]]
compound = "CC(C)(C)C[C@H]1NC(=O)c2ccccc2N(CCCCCC(=O)NO)C1=O"
endpoint_name = "IC50"
assay_result = "50 to 500 nM"

[[record]]
compound = "CC(C)C[C@@H]1NC(=O)c2ccccc2N(CCCCCC(=O)NO)C1=O"
endpoint_name = "IC50"
assay_result = "500 to 2000 nM"


Query: Fill in the blank: the reported IC50 of O=C(NO)c1ccc2c(c1)NC(=O)[C@H](Cc1cn(C(c3ccccc3)(c3ccccc3)c3ccccc3)cn1)N2 is ____.
Result: 2000 to 10000 nM

Query: Fill in the blank: the reported IC50 of O=C(NO)c1ccc(CN2c3ccccc3NC(=O)[C@H]2Cc2cccs2)cc1 [Compound 54a2] is ____.
Result: < 50 nM

Query: Fill in the blank: the reported IC50 of O=C(NO)c1ccc2c(c1)NC(=O)[C@H](c1ccccc1)NC2=O [Compound 97i] is ____.
Result: 2000 to 10000 nM

Query: Fill in the blank: the reported IC50 of O=C(CCCCC[C@@H]1NC(=O)c2cc(NC(=O)OCc3ccccc3)ccc2NC1=O)NO [Compound 92b] is ____.
Result: 50 to 500 nM

Query: Fill in the blank: the reported IC50 of CC(C)[C@H]1Nc2ccc(C(=O)NO)cc2NC1=O is ____.
Result: 2000 to 10000 nM

Query: Fill in the blank: the reported IC50 of CC(C)C[C@H]1NC(=O)c2ccc(C(=O)NO)cc2NC1=O [Compound 97f] is ____.
Result: 2000 to 10000 nM

Query: Fill in the blank: the reported IC50 of C[C@@H]1NC(=O)c2ccccc2N(CCCCCC(=O)NO)C1=O is ____.
Result: 500 to 2000 nM

Query: Fill in the blank: the reported IC50 of O=C(NO)c1ccc2c(c1)NC(=O)[C@@H](Cc1c[nH]c3ccccc13)NC2=O [Compound 97d] is ____.
Result: 500 to 2000 nM

----------
target or test system: histone deacetylase (HDAC)
assay method text: Inhibition of Histone Deacetylase Enzymatic Activity
measurement setup: substrate Boc-Lys(Ac)-AMC, Fluor-de-Lys developer, 37° C., 20 min; against one or more of HDAC-1 to HDAC-11, SirT1 to SirT7 (isoform not given); read-out: HDAC Inhibitory Activity (IC50)
endpoint name: IC50

Some entries whose results are on file:
[[record]]
compound = "CC(C)[C@@H]1Nc2ccc(C(=O)NO)cc2NC1=O"
assay_result = "2 to 10 µM"

[[record]]
compound = "CC(C)[C@@H]1Nc2ccc(NC(=O)CCCCCCC(=O)c3ncco3)cc2NC1=O [Compound 29a]"
assay_result = "0.05 to 0.5 µM"

[[record]]
compound = "CC(C)[C@@H]1Nc2ccc(C(=O)NCCCCCC(=O)NO)cc2NC1=O"
assay_result = "0.05 to 0.5 µM"


Query: Fill in the blank: the reported IC50 of O=C(CCCCCN1C(=O)[C@@H](Cc2c[nH]c3ccccc23)NC(=O)c2ccccc21)NO is ____.
Result: 0.05 to 0.5 µM

Query: Fill in the blank: the reported IC50 of O=C(NO)c1ccc(CN2c3ccccc3NC(=O)[C@H]2CC2CCCCC2)cc1 is ____.
Result: 0.05 to 0.5 µM

Query: Fill in the blank: the reported IC50 of O=C(CCCCCN1C(=O)[C@H](Cc2c[nH]c3ccccc23)NC(=O)c2ccccc21)NO is ____.
Result: 2 to 10 µM

Query: Fill in the blank: the reported IC50 of COc1ccc(CN2c3ccc(NC(=O)CCCCCCC(=O)NO)cc3NC(=O)[C@H]2C(C)C)cc1 [Compound 26e] is ____.
Result: 0.05 to 0.5 µM

Query: Fill in the blank: the reported IC50 of O=C(NO)c1ccc(CN2c3ccccc3NC(=O)[C@H]2Cc2c[nH]c3ccccc23)cc1 is ____.
Result: < 0.05 µM

Query: Fill in the blank: the reported IC50 of O=C(CCCCCN1C(=O)[C@@H](c2ccccc2)NC(=O)c2ccccc21)NO is ____.
Result: 0.05 to 0.5 µM

Query: Fill in the blank: the reported IC50 of CC(C)(C)Oc1ccc(C[C@@H]2C(=O)Nc3ccccc3N2Cc2ccc(C(=O)NO)cc2)cc1 is ____.
Result: < 0.05 µM

Query: Fill in the blank: the reported IC50 of CC(C)[C@H]1C(=O)Nc2cc(C(=O)NO)ccc2N1S(=O)(=O)c1ccccc1 [Compound 18a] is ____.
Result: 2 to 10 µM

Query: Fill in the blank: the reported IC50 of C[C@H]1NC(=O)c2ccccc2N(CCCCCC(=O)NO)C1=O is ____.
Result: 0.05 to 0.5 µM

Entry source: patent US20070155730A1
